- Tested on: HIV-1
- APPLIED_CONDITIONS: test concentration 25 µg/mℓ, duration 6 days
# % INHIBITION OF P24 PROTEIN PRODUCTION annotations

| COMPOUND | TARGET_ENTITY | % INHIBITION OF P24 PROTEIN PRODUCTION, % |
| --- | --- | --- |
| CCCCCCCCO[C@@H]1O[C@H](COS(=O)(=O)O)[C@@H](OS(=O)(=O)O)[C@H](OS(=O)(=O)O)[C@H]1OS(=O)(=O)O [n-OCTYL GLUCOSIDE TETRA-SULPHATE, reference compound] | HIV-1 | 0 |
| CCCCCCCCCCCCOS(=O)(=O)[O-].[Na+] [SODIUM n-DODECYL SULPHATE, reference compound] | HIV-1 | 0 |
| CC[C@H](CC[C@@H](C)[C@H]1CC[C@H]2[C@@H]3CC=C4C[C@@H](O[C@@H]5O[C@H](COS(=O)(=O)O)[C@@H](OS(=O)(=O)O)[C@H](OS(=O)(=O)O)[C@H]5OS(=O)(=O)O)CC[C@]4(C)[C@H]3CC[C@]12C)C(C)C [BSSG-(SO₄⁻)₄] | HIV-1 | 91 |
| C[C@@H]1CC[C@@]2(OC1)O[C@H]1C[C@H]3[C@@H]4CC=C5C[C@@H](O[C@@H]6O[C@H](COS(=O)(=O)[O-])[C@@H](OS(=O)(=O)[O-])[C@H](OS(=O)(=O)[O-])[C@H]6OS(=O)(=O)[O-])CC[C@]5(C)[C@H]4CC[C@]3(C)[C@H]1[C@@H]2C.[Na+].[Na+].[Na+].[Na+] [DG-(SO₄⁻)₄, Diosgenyl β-D-glucoside tetra-sulphate] | HIV-1 | 60 |
